system: ZFP SBS#944 (synthetic, UniProt P08047)
Sequence (P08047 other isoform, or with tags, fused parts or gaps): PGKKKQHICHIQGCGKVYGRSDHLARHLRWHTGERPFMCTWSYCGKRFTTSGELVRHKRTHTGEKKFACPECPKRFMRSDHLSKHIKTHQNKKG
method-summary: EMSA
assay-context: tags: MBP fusion
pKd: −log10 of the molar value.
assay-endpoint: pKd

INSERT INTO results (binder, assay_endpoint, test_result) VALUES
  ('GGGGCTGGG (dsDNA) DNA 1: GGGGCTGGG DNA 2: CCCAGCCCC', 'pKd', 10.57);
